These data points were gathered from ChEMBL document CHEMBL2046347.

- experimental target: Toll-like receptor 2 (Homo sapiens) (UniProt O60603)
- Sequence (O60603 whole entry): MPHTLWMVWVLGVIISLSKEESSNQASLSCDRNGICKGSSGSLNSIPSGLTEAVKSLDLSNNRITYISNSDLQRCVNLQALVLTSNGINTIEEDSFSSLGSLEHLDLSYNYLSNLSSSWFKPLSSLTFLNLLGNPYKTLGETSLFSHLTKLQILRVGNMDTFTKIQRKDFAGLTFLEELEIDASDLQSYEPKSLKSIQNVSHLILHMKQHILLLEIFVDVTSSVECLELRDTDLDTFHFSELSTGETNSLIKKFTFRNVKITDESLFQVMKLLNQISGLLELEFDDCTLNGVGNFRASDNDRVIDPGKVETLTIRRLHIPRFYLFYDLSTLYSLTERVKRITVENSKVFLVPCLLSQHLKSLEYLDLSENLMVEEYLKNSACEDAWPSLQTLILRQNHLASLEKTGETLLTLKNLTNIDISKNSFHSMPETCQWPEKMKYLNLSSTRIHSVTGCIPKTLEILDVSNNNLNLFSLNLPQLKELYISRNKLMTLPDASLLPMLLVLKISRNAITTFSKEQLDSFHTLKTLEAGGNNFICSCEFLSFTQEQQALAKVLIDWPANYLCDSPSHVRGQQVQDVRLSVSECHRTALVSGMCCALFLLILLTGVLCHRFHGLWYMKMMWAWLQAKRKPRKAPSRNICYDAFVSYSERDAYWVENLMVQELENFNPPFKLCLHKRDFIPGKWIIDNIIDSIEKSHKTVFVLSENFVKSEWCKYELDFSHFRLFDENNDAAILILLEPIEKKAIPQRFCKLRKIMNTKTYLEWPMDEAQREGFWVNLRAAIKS
- test method notes: Agonist activity at human TLR2 expressed in HEK293 cells assessed as NFkappaB translocation after 12 hrs by secretory alkaline phosphatase reporter gene assay
- Assay type: functional, cell-based
Activity calls are given as the source filed them. The rule behind the calls is not given here.
Outcomes: active, inactive

test smiles	experimental target	answer label
CCCCCCCCCCCCCCCC(=O)OCCSC[C@H](NS(=O)(=O)C(F)(F)F)C(=O)N[C@@H](CO)C(=O)OC	Toll-like receptor 2 (Homo sapiens) (UniProt O60603)	inactive
CCCCCCCCCCCCCCCC(=O)OCCSC[C@H](NC(=O)C(Cl)(Cl)Cl)C(=O)N[C@@H](CO)C(=O)OC	Toll-like receptor 2 (Homo sapiens) (UniProt O60603)	inactive
CCCCCCCCCCCCCCCC(=O)OCCSC[C@H](NS(C)(=O)=O)C(=O)N[C@@H](CO)C(=O)OC	Toll-like receptor 2 (Homo sapiens) (UniProt O60603)	inactive
CCCCCCCCCCCCCCCC(=O)OCCSC[C@H](NS(=O)(=O)c1ccc(C)cc1)C(=O)N[C@@H](CO)C(=O)OC	Toll-like receptor 2 (Homo sapiens) (UniProt O60603)	inactive
CCCCCCCCCCCCCCCC(=O)OCCSC[C@H](N)C(=O)N[C@@H](COC(C)=O)C(=O)OC	Toll-like receptor 2 (Homo sapiens) (UniProt O60603)	active
